molecular target: farnesyltransferase (Rattus norvegicus, UniProt Q02293+Q04631); construct: The enzyme can be purified according to Cell, 62: 81-88 (1990), utilizing steps one, two, and three; from tissue; host or cells: rat brain; experiment: Inhibition of farnesyltransferase (3H-farnesyldiphosphate / H-Ras filter assay); format: biochemical; details: test compound at 10^−7 M; 3H-farnesyldiphosphate 0.6 μM, H-Ras 5.0 μM, 37° C., 30 minutes
quantity.name: inhibition at 0.1 µM (%)

COc1ccc(-c2cc(Cl)ccc2COC(c2ccc(C#N)cc2)c2cncn2C)cc1OC (stereo not shown) [Example 21] = 91
Cn1cncc1C(OCc1ccc(Cl)cc1-c1cccc(Cl)c1Cl)c1ccc(C#N)cc1 (stereo not shown) [Example 25] = 87
Cn1cncc1C(OCc1ccc(Cl)cc1-c1cccc(F)c1)c1ccc(C#N)cc1 (stereo not shown) [Example 10] = 94
Cn1cncc1C(OCc1cn(C)c(=O)cc1-c1cccc(Cl)c1)c1ccc(C#N)cc1 (stereo not shown) [Example 45] = 87
Cn1cncc1C(OCc1ccc(Cl)cc1-c1ccc(C=O)s1)c1ccc(C#N)cc1 (stereo not shown) [Example 29] = 92

---

target: farnesyltransferase (Rattus norvegicus, UniProt Q02293+Q04631); construct: The enzyme can be purified according to Cell, 62: 81-88 (1990), utilizing steps one, two, and three; from tissue; host or cells: rat brain; test: Inhibition of farnesyltransferase (3H-farnesyldiphosphate / H-Ras filter assay); format: biochemical; settings: test compound at 10^−8 M; 3H-farnesyldiphosphate 0.6 μM, H-Ras 5.0 μM, 37° C., 30 minutes
quantity.name: inhibition at 0.01 µM (%)

Cn1cncc1C(F)(COc1ccc(C#N)cc1-c1cccc(Cl)c1)c1ccc(C#N)cc1 (centres unmarked) = 97
Cn1cncc1C(O)(COc1ccc(C#N)cc1-c1ccc2c(c1)OC(F)(F)O2)c1ccc(C#N)cc1 (centres unmarked) = 96
Cn1cncc1C(F)(COc1ccc(C#N)cc1-c1cccc(F)c1)c1ccc(C#N)cc1 (centres unmarked) = 95
Cn1cncc1C(F)(COc1ccc(C#N)cc1-c1ccc2c(c1)OC(F)(F)O2)c1ccc(C#N)cc1 (centres unmarked) = 90
Cn1cncc1C(O)(COc1ccc(C#N)cc1-c1cccc2ccccc12)c1ccc(C#N)cc1 (centres unmarked) = 90
Cn1cncc1C(OCc1ccc(C#N)cc1C(=O)Nc1cccc(Cl)c1)c1ccc(C#N)cc1 (centres unmarked) = 90
Cn1cncc1C(F)(COc1ccc(C#N)cc1-c1cc(F)cc(F)c1)c1ccc(C#N)cc1 (centres unmarked) = 91
Cn1cncc1C(F)(COc1ccc(C#N)cc1-c1ccc2c(c1)OCO2)c1ccc(C#N)cc1 (centres unmarked) = 97
Cn1cncc1C(F)(COc1ccc(C#N)cc1-c1cccc(OC(F)(F)F)c1)c1ccc(C#N)cc1 (centres unmarked) = 94
Cn1cncc1C(F)(COc1ccc(C#N)cc1-c1ccc(Cl)c(Cl)c1)c1ccc(C#N)cc1 (centres unmarked) = 94
COc1cccc(-c2cc(C#N)ccc2N(C)CC(O)(c2ccc(C#N)cc2)c2cncn2C)c1 (centres unmarked) = 92

---

target: farnesyltransferase (Rattus norvegicus, UniProt Q02293+Q04631); construct: The enzyme can be purified according to Cell, 62: 81-88 (1990), utilizing steps one, two, and three; from tissue; host or cells: rat brain; test: Inhibition of farnesyltransferase (3H-farnesyldiphosphate / H-Ras filter assay); type: biochemical; details: test compound at 10^−7 M; 3H-farnesyldiphosphate 0.6 μM, H-Ras 5.0 μM, 37° C., 30 minutes
quantity.name: inhibition at 0.1 µM (%)

Cn1cncc1C(OCc1ccc(Cl)cc1I)c1ccc(C#N)cc1 (stereo not drawn) [Example 1] = 73
Cn1cncc1C(OCc1ccc(Cl)cc1-c1cccc(C=O)c1)c1ccc(C#N)cc1 (stereo not drawn) [Example 30] = 92
Cn1cncc1C(OCc1c(-c2cccc(Cl)c2)cc(C#N)c(=O)n1C)c1ccc(C#N)cc1F (stereo not drawn) [Example 53] = 100

---

Catalogue of inhibition at 0.1 µM values
target: farnesyltransferase (Rattus norvegicus, UniProt Q02293+Q04631); construct: The enzyme can be purified according to Cell, 62: 81-88 (1990), utilizing steps one, two, and three; from tissue; host or cells: rat brain; assay: Inhibition of farnesyltransferase (3H-farnesyldiphosphate / H-Ras filter assay); format: biochemical; details: test compound at 10^−7 M; 3H-farnesyldiphosphate 0.6 μM, H-Ras 5.0 μM, 37° C., 30 minutes

Worked examples, 4 compounds total:
Cn1cncc1C(OCc1ccc(C#N)cc1-c1ccc2c(c1)OCO2)c1ccc(C#N)cc1 (centres unmarked) = > 98%
COc1cccc(-c2cc(Cl)ccc2COC(c2ccc(C#N)cc2)c2cncn2C)c1 (centres unmarked) = > 91%
CCOc1cccc(-c2cc(C#N)ccc2COC(c2ccc(C#N)cc2)c2cncn2C)c1 (centres unmarked) = > 98%
CC(=O)c1ccc(-c2cc(Cl)ccc2COC(c2ccc(C#N)cc2)c2cncn2C)cc1 (centres unmarked) = > 83%

Lab note: next compound to report on.
In: Using known records, supply inhibition at 0.1 µM for Cn1cncc1C(O)(C#Cc1ccc(Cl)cc1-c1cccc(Cl)c1)c1ccc(C#N)cc1 (centres unmarked)
Out: > 96%

---

Catalogue of inhibition at 0.1 µM values
target: farnesyltransferase (Rattus norvegicus, UniProt Q02293+Q04631); construct: The enzyme can be purified according to Cell, 62: 81-88 (1990), utilizing steps one, two, and three; from tissue; host or cells: rat brain; experiment: Inhibition of farnesyltransferase (3H-farnesyldiphosphate / H-Ras filter assay); assay type: biochemical; settings: test compound at 10^−7 M; 3H-farnesyldiphosphate 0.6 μM, H-Ras 5.0 μM, 37° C., 30 minutes

Worked examples, 2 molecules total:
Cc1ccc(-c2cc(Cl)ccc2COC(c2ccc(C#N)cc2)c2cncn2C)cc1C (stereo not drawn) = > 85%
CCOc1cccc(-c2cc(Cl)ccc2COC(c2ccc(C#N)cc2)c2cncn2C)c1 (stereo not drawn) = > 95%

In: Print farnesyltransferase (Rattus norvegicus, UniProt Q02293+Q04631) inhibition at 0.1 µM for Cn1cncc1C(OCc1ccc(Cl)cc1-c1cccc(Cl)c1)c1ccc(C#N)cc1 (stereo not drawn) .
Out: > 91%
